A short record of Ki observed with Acetylcholinesterase (Electrophorus electricus, UniProt O42275) follows.
Sequence (O42275 whole entry): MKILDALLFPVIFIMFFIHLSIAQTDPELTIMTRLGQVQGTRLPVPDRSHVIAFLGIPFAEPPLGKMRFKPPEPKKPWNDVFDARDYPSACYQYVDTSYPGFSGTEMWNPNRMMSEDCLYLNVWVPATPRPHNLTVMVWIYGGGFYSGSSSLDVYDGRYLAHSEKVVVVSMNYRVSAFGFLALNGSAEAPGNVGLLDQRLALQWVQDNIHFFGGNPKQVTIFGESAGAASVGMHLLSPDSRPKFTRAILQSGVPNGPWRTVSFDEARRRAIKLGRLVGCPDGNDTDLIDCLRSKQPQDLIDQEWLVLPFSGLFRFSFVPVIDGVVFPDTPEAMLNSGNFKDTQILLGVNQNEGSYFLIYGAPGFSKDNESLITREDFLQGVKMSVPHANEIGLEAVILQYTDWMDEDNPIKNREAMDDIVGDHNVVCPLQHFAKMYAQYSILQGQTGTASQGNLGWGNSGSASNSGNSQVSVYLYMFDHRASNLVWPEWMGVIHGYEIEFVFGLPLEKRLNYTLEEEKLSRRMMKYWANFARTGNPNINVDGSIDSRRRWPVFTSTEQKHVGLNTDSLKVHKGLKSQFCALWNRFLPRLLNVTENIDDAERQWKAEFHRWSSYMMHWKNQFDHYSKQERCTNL
Please give a number only; it is taken to be in µM.

Which Ki value belongs to COc1ccc(/C=N/NC(=O)c2ccc(CN3CCCC(O)C3)cc2)cc1 (configuration not stated) ?
11.5

Same for O=C(N/N=C/c1ccc(Cl)cc1)c1ccc(CN2CCCC(O)C2)cc1 (configuration not stated)
7.76

// next record O=C(N/N=C/c1ccc(N2CCCCC2)cc1)c1ccc(CN2CCCC(O)C2)cc1 (configuration not stated)
9.7

How about CSc1ccc(/C=N/NC(=O)c2ccc(CN3CCCC(O)C3)cc2)cc1 (configuration not stated) ?
8.42

What about O=C(N/N=C/c1ccc(-n2ccnc2)cc1)c1ccc(CN2CCCC(O)C2)cc1 (configuration not stated) ?
21.1

Also O=C(N/N=C/c1ccc(F)cc1)c1ccc(CN2CCCC(O)C2)cc1 (configuration not stated) , if possible.
13.4

Same lookup for O=C(N/N=C/c1ccc([N+](=O)[O-])cc1)c1ccc(CN2CCCC(O)C2)cc1 (configuration not stated) , please.
2.45

---

Hi there, I'd appreciate the recorded IC50 for every entry that follows.
Measurement target: UniProt:P81908
Sequence (P81908 whole entry): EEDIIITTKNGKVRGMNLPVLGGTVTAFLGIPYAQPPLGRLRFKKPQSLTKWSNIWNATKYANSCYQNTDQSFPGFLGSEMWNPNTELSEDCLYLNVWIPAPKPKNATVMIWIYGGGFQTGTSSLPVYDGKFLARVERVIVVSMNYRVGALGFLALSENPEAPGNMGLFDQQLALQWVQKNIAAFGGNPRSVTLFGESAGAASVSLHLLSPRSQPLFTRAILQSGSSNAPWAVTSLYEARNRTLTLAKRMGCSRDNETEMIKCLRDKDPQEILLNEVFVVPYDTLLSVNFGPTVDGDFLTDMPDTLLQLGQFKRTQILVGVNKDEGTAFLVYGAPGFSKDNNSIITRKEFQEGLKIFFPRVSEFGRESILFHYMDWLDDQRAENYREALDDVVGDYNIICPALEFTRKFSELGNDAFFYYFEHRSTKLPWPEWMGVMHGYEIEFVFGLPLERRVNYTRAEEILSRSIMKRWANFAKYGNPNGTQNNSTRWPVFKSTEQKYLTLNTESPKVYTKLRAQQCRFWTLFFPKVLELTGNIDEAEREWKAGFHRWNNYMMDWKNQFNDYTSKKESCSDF
Assay name: Inhibition of […] preincubated for 10 mins followed by substrate addition by Ellman's method
Could you give me the number in µM? Just the number is fine.

Entry CSc1ccc(/C=N/NC(=O)c2ccc(CN3CCCC(O)C3)cc2)cc1 (configuration not stated) : reported IC50 = ?
59.3

O=C(N/N=C/c1ccc([N+](=O)[O-])cc1)c1ccc(CN2CCCC(O)C2)cc1 (configuration not stated) , same question.
33.9

Would you mind doing O=C(N/N=C/c1ccc(Cl)cc1)c1ccc(CN2CCCC(O)C2)cc1 (configuration not stated) as well?
48.2

Cool, now COc1ccc(/C=N/NC(=O)c2ccc(CN3CCCC(O)C3)cc2)cc1 (configuration not stated)
91.9

What would you report for O=C(N/N=C/c1ccc(N2CCCCC2)cc1)c1ccc(CN2CCCC(O)C2)cc1 (configuration not stated) ?
58.1

What about O=C(N/N=C/c1ccc(F)cc1)c1ccc(CN2CCCC(O)C2)cc1 (configuration not stated) ?
39

Likewise for O=C(N/N=C/c1ccc(-n2ccnc2)cc1)c1ccc(CN2CCCC(O)C2)cc1 (configuration not stated) ?
39.6

---

Hi there, I'd appreciate the recorded Activity_index for every entry that follows.
System: Mus musculus
Assay name: Antinociceptive activity in carrageenan-induced Swiss mouse model of mechanical hyperalgesia assessed as mechanical hyperalgesic index pretreated orally for 1 hr followed by carrageenan challenge by Von Frey filament assay; also: test concentration or dose not given here
Format: functional
A bare number is all that is needed in reply.

What measured Activity_index goes with Nc1ccc(/C=N/NC(=O)c2ccc(CN3CCCC(O)C3)cc2)cc1 (centres undefined) ?
244.4

And then CSc1ccc(/C=N/NC(=O)c2ccc(CN3CCCC(O)C3)cc2)cc1 (centres undefined) , what is it?
260.3

Same read-out for O=C(N/N=C/c1ccc(N2CCCCC2)cc1)c1ccc(CN2CCCC(O)C2)cc1 (centres undefined) ?
64.56

And for O=C(N/N=C/c1ccc(N2CCOCC2)cc1)c1ccc(CN2CCCC(O)C2)cc1 (centres undefined) ?
83.96

Then this compound: CC(=O)Oc1ccc(/C=N/NC(=O)c2ccc(CN3CCCC(OC(C)=O)C3)cc2)cc1 (centres undefined)
353.1

Another compound to check: COc1ccc2c(c1)c(CC(=O)O)c(C)n2C(=O)c1ccc(Cl)cc1
158.1

O=C(N/N=C/c1ccc(N2CCCC2)cc1)c1ccc(CN2CCCC(O)C2)cc1 (centres undefined) ?
206.4

Queued: CC(=O)OC1CCCN(Cc2ccc(C(=O)N/N=C/c3ccc(N)cc3)cc2)C1 (centres undefined)
146.1

Then this compound: O=C(N/N=C/c1ccc(F)cc1)c1ccc(CN2CCCC(O)C2)cc1 (centres undefined)
178.9

Another compound: O=C(N/N=C/c1ccc(Br)cc1)c1ccc(CN2CCCC(O)C2)cc1 (centres undefined)
235.8

What do you have for O=C(N/N=C/c1ccc(Cl)cc1)c1ccc(CN2CCCC(O)C2)cc1 (centres undefined) ?
168.3

Continue with CC(=O)OC1CCCN(Cc2ccc(C(=O)N/N=C/c3ccc(Br)cc3)cc2)C1 (centres undefined)
206.9

Another compound to look at: O=C(N/N=C/c1ccc([N+](=O)[O-])cc1)c1ccc(CN2CCCC(O)C2)cc1 (centres undefined)
320.1

Moving on to the next compound: COc1ccc(/C=N/NC(=O)c2ccc(CN3CCCC(O)C3)cc2)cc1 (centres undefined)
161.1

Just for reference, ChEMBL document CHEMBL4145530 is where these values come from.
